Dear all, I have gathered published Ki values for 5-hydroxytryptamine receptor 2B (Rattus norvegicus, UniProt P30994); the list follows.
// note: answer is a bare numeric in nM

The compound `O=C(c1ccc(F)cc1)C1CCN(CCn2c(=O)[nH]c3ccccc3c2=O)CC1` , tested on 5-hydroxytryptamine receptor 2B (Rattus norvegicus, UniProt P30994), showed Ki of 3980

The compound `COC(=O)[C@@H]1[C@H]2C[C@H]3c4[nH]c5ccccc5c4CCN3C[C@@H]2CC[C@@H]1O` , tested on 5-hydroxytryptamine receptor 2B (Rattus norvegicus, UniProt P30994), showed Ki of 39.8

The compound `Cn1ccc2cc3c(cc21)CCN3C(=O)Nc1cccnc1` , tested on 5-hydroxytryptamine receptor 2B (Rattus norvegicus, UniProt P30994), showed Ki of 1.29
